Data provenance is PubChem BioAssay (NCI).

Listed here: items and their measured GI50.
- Test system: HT29 colon
- ASSAY REMARKS: NCI tumour cell line growth inhibition, 48 h

Below: 5 molecules and their reported GI50.
> print(dat)
                                   molecule  observed.measurement
1                  COc1cccc2c1-c1ccccc1C2=O               3030 nM
2  Nc1nc(N)c2cc(CNc3ccc(C(=O)NC(CC(=O)O)C(=O)O)cc3)ccc2n1 (stereo unspecified)               59.4 nM
3  Cc1c(C(N)=O)sc2c1c(=O)n(Cc1ccccc1)c1nnc(SCC(=O)Nc3ccc(Cl)cc3)n21           > 100000 nM
4    COc1ccc(/C=C/C(=O)c2cccc(B(O)O)c2)cc1O               9770 nM
5  COc1ccc2nc3cc(Cl)ccc3c(NCCCCCN3CCCCC3)c2c1               33.8 nM

Data request: Quick one: GI50 for Cc1nc2cc(-n3c(-c4ccc(F)cc4)nc4ccccc4c3=O)ccc2n1Cc1ccccc1 ?
Data returned: 2230 nM
